- assay_system: PIK3CG (human) (UniProt P48736)
- Sequence (P48736 whole entry, looked up): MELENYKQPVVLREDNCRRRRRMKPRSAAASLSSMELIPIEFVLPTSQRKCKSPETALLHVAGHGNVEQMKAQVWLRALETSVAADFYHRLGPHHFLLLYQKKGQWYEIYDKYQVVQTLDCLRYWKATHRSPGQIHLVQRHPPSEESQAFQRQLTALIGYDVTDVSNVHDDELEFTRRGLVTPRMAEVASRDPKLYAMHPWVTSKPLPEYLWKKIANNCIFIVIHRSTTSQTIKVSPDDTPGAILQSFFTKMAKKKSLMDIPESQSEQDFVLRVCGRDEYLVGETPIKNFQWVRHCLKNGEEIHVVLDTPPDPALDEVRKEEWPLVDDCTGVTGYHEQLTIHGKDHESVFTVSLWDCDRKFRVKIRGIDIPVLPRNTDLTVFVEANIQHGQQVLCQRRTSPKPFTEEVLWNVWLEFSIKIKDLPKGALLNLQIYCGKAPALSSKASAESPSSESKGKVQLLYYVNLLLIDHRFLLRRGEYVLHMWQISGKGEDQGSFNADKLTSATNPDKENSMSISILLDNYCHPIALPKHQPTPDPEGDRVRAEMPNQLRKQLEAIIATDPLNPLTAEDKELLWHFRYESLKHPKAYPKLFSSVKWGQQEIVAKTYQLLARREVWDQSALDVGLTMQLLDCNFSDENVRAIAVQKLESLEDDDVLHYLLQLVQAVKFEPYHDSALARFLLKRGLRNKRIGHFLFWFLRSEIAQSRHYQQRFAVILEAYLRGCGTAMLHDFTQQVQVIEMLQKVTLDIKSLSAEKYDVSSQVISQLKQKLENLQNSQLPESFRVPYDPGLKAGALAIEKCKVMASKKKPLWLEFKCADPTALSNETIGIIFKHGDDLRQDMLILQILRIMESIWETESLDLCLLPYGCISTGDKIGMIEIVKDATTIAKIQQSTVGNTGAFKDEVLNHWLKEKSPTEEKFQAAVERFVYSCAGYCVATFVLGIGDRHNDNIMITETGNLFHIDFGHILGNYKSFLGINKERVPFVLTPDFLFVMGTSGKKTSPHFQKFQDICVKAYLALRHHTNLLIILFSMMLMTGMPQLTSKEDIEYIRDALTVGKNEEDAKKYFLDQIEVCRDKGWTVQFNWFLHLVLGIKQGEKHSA
- test_method_notes: Enzyme Assay
pIC50: −log10 of the molar value.
measured_metric: pIC50

>  <smiles_data>
C[C@H](NC(=O)c1nc(-c2cncc(NS(C)(=O)=O)c2)cnc1N)c1cc2cccc(Cl)c2c(=O)n1C1CC1

>  <measured_metric>
pIC50

>  <observed_measurement>
> 7.00

$$$$
>  <smiles_data>
C[C@H](NC(=O)c1c(N)nn2cccnc12)c1cc2cccc(/C=N\O)c2c(=O)n1-c1ccccc1

>  <measured_metric>
pIC50

>  <observed_measurement>
6.00 to 7.00

$$$$
>  <smiles_data>
COc1cc(-c2cccc3cc([C@H](C)NC(=O)c4c(N)nn5ccc(C)nc45)n(-c4ccccc4)c(=O)c23)ccn1

>  <measured_metric>
pIC50

>  <observed_measurement>
6.00 to 7.00

$$$$
>  <smiles_data>
C[C@H](NC(=O)c1c(N)nn2cccnc12)c1cc2cccc(Cl)c2c(=O)n1CCN(C)S(C)(=O)=O

>  <measured_metric>
pIC50

>  <observed_measurement>
> 7.00

$$$$
>  <smiles_data>
Nc1nn2cccnc2c1C(=O)NCc1cc2cccc(Cl)c2c(=O)n1-c1ccccc1

>  <measured_metric>
pIC50

>  <observed_measurement>
≤ 5.00

$$$$

All values here come from the Kinase Knowledgebase extract (Sharma et al. 2016).
